assayed_system: ΔF508 CFTR (Homo sapiens, UniProt P13569, DEL508-508)
Sequence (P13569 with tags, fused parts or gaps DEL508-508): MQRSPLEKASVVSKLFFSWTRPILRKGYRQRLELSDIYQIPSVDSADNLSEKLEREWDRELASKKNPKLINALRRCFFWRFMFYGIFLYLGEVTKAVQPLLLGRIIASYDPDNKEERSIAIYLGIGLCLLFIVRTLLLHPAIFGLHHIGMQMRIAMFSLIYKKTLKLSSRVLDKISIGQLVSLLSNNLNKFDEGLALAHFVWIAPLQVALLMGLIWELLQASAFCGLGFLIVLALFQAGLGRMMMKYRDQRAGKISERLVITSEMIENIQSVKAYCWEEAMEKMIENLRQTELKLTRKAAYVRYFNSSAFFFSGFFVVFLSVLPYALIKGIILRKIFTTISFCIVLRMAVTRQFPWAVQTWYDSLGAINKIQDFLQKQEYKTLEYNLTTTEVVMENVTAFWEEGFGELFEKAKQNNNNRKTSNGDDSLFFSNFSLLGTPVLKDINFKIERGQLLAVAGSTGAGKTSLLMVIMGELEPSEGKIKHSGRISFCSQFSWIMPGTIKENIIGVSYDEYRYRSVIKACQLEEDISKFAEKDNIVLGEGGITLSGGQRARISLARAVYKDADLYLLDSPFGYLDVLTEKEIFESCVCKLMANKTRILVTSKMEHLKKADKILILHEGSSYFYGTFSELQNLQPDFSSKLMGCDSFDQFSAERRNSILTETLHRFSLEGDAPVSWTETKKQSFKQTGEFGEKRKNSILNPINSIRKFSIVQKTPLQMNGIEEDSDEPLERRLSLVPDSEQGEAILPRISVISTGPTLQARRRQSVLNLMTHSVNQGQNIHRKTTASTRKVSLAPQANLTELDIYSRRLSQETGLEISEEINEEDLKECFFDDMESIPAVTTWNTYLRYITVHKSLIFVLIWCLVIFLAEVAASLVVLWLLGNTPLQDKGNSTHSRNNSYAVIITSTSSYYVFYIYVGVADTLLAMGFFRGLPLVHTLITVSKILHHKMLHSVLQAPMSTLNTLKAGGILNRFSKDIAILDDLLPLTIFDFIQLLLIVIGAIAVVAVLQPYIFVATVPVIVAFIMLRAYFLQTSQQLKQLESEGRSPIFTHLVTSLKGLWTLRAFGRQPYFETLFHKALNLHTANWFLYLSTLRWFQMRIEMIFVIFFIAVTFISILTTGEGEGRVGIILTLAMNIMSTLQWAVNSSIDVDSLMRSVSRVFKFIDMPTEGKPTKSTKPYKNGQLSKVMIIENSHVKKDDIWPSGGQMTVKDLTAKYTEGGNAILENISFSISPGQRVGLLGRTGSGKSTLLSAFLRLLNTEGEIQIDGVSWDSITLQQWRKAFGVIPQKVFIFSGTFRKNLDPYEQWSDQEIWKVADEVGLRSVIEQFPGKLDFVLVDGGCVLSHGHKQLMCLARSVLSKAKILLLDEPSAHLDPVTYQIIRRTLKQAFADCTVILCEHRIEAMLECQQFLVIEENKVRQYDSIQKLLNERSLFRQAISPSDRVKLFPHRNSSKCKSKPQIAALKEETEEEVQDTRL
test_description: Corrector activity, YFP halide (iodide) quenching assay in FRT cells expressing ΔF508 CFTR
Type: cell-based
Parameters: expressed in transfected cells; host or cells: Fischer rat thyroid (FRT) cells
measurement_conditions: FRT cells ΔF508 CFTR/YFP, 24 hours with compound at 37° C., forskolin and genistein; read-out: Corrector EC50
test_readout: EC50

# count of solved cases: 4
- compound: "CCn1c(C)c(-c2ccc(Cl)cc2)c2c(NC(=O)C(C)C)ncnc21 [compound 364]"
  reported: "< 2 µM"
- compound: "CC(C)(C)C(=O)Nc1ncnc2c1c(Br)nn2C(C)(C)C [compound 422]"
  reported: "2 to 5 µM"
- compound: "CN1CC[C@@H](n2nc(-c3ccc(Cl)cc3)c3c(N)ncnc32)C1 [Compound No. 356]"
  reported: "< 2 µM"
- compound: "CC(C)C(=O)C(=O)Nc1ncnc2c1c(-c1ccc(Cl)cc1)nn2C(C)(C)C [compound 394]"
  reported: "> 15 µM"

# ---- query compound ----
Asked: For CNC(=S)Nc1ncnc2c1c(-c1ccc(Cl)cc1)nn2C(C)(C)C [Compound No. 397] , what is its reported EC50?
Given back: > 15 µM

* * *

assayed_system: ΔF508 CFTR (Homo sapiens, UniProt P13569, DEL508-508)
test_description: Corrector activity, YFP halide (iodide) quenching assay in FRT cells expressing ΔF508 CFTR
Type: cell-based
Set-up: expressed in transfected cells; host or cells: Fischer rat thyroid (FRT) cells
measurement_conditions: Corrector EC50, FRT cells ΔF508 CFTR/YFP, 24 hours with compound at 37° C., forskolin and genistein
Description: Fisher rat thyroid (FRT) cells stably expressing ΔF508 CFTR and a halide-sensitive variant of yellow fluorescent protein (YFP) were seeded into microtiter plates and allowed to grow for 24 hours at 37° C. and 5% CO2. See Pedemonte et al., J. Clin. Invest. […] Corrector activity was calculated as follows. Normalized endpoint fluorescence was calculated by dividing the endpoint fluorescence after iodide injection by the initial fluorescence reading and multiplication by 100. […]
pEC50: −log10 of the molar value.
test_readout: pEC50

# count of solved cases: 2
- smiles: "CC(C)(C)n1nc(-c2cccc3ccccc23)c2c(N)ncnc21"
  pEC50: "< 4.82"
- smiles: "Cc1ccc(-c2nn(C(C)(C)C)c3ncnc(N)c23)cc1"
  pEC50: "5.30 to 5.70"

# ---- query molecule ----
Asked: For CC(C)(C)n1nc(-c2ccc(Cl)cc2)c2c(N)ncnc21 , what is its reported pEC50?
Given back: 5.30 to 5.70

* * *

assayed_system: ΔF508 CFTR (Homo sapiens, UniProt P13569, DEL508-508)
test_description: Corrector activity, YFP halide (iodide) quenching assay in FRT cells expressing ΔF508 CFTR
Type: cell-based
Parameters: expressed in transfected cells; host or cells: Fischer rat thyroid (FRT) cells
measurement_conditions: FRT cells ΔF508 CFTR/YFP, 24 hours with compound at 37° C., forskolin and genistein; read-out: Corrector EC50
test_readout: EC50

# count of solved cases: 3
- compound: "C=CCn1cc(-c2ccc(Cl)cc2)c2c(N)ncnc21"
  reported: "2 to 5 µM"
- compound: "CC(C)(C)n1nc(Oc2ccc(F)c(F)c2)c2c(N)ncnc21"
  reported: "> 15 µM"
- compound: "Nc1ncnc2c1c(-c1ccc(Cl)cc1)nn2C(=O)OCc1ccccc1"
  reported: "5 to 10 µM"

Asked: For Nc1ncnc2c1c(Oc1cccc(Cl)c1)nn2CC1CCC1 , what is its reported EC50?
Given back: > 15 µM

Asked: # iterate: CC(C)(C)n1nc(Oc2ccc(F)cc2)c2c(N)ncnc21
Given back: 5 to 10 µM

Asked: # iterate: CC(C)(C)n1nc(-c2ccc(Cl)cc2)c2c(NC(=O)C(=O)c3ccccc3)ncnc21
Given back: 5 to 10 µM

Asked: # iterate: CCn1cc(-c2ccc(C)cc2)c2c(N)ncnc21
Given back: 2 to 5 µM

* * *

Quick reference for EC50 among some compounds
assayed_system: ΔF508 CFTR (Homo sapiens, UniProt P13569, DEL508-508)
test_description: Corrector activity, YFP halide (iodide) quenching assay in FRT cells expressing ΔF508 CFTR
Format: cell-based
Set-up: expressed in transfected cells; host or cells: Fischer rat thyroid (FRT) cells
measurement_conditions: FRT cells ΔF508 CFTR/YFP, 24 hours with compound at 37° C., forskolin and genistein; read-out: Corrector EC50
Protocol: Fisher rat thyroid (FRT) cells stably expressing ΔF508 CFTR and a halide-sensitive variant of yellow fluorescent protein (YFP) were seeded into microtiter plates and allowed to grow for 24 hours at 37° C. and 5% CO2. See Pedemonte et al., J. Clin. Invest. […] Corrector activity was calculated as follows. Normalized endpoint fluorescence was calculated by dividing the endpoint fluorescence after iodide injection by the initial fluorescence reading and multiplication by 100. […]

# count of solved cases: 10
- compound: "CCn1c(C)c(-c2ccc(Cl)cc2)c2c(N)ncnc21 [compound 401]"
  EC50: "2 to 5 µM"
- compound: "Nc1ncnc2c1c(-c1ccc(Cl)cc1)cn2CC(F)F [compound 290]"
  EC50: "< 2 µM"
- compound: "CC(C)(C)n1nc(-c2ccc(O)cc2Cl)c2c(N)ncnc21 [compound 276]"
  EC50: "5 to 10 µM"
- compound: "Cc1ccc(-c2nn(C(C)(C)C)c3ncnc(NC(=O)c4ccc(F)cc4)c23)cc1 [compound 94]"
  EC50: "5 to 10 µM"
- compound: "CC(C)(C)n1nc(Oc2cccc(F)c2)c2c(N)ncnc21 [compound 200]"
  EC50: "> 15 µM"
- compound: "CN1CC(n2nc(Cc3cccc4ccccc34)c3c(N)ncnc32)C1 [compound 387]"
  EC50: "> 15 µM"
- compound: "CC(C)(C)C(=O)Nc1ncnc2c1cnn2C(C)(C)C [compound 389]"
  EC50: "> 15 µM"
- compound: "CN1CCC(C(=O)Nc2ncnc3c2c(-c2ccc(Cl)cc2)cn3C(C)(C)C)C1 (centres unmarked) [compound 375]"
  EC50: "< 2 µM"
- compound: "CC(C)(C)n1nc(S(=O)(=O)c2ccccc2)c2c(N)ncnc21 [compound 191]"
  EC50: "> 15 µM"
- compound: "CC(C)(C)n1nc(Oc2cccc(Cl)c2)c2c(NC(=O)C3CCCC3)ncnc21 [compound 338]"
  EC50: "5 to 10 µM"

# ---- query compound ----
Asked: For CC(C)Cn1nc(-c2ccc(Cl)cc2)c2c(N)ncnc21 [compound 252] , what is its reported EC50?
Given back: 2 to 5 µM

* * *

Quick reference for pEC50 among some compounds
assayed_system: ΔF508 CFTR (Homo sapiens, UniProt P13569, DEL508-508)
test_description: Potentiator activity, YFP halide (iodide) quenching assay in FRT cells expressing ΔF508 CFTR, 27° C. pre-incubation
Type: cell-based
Set-up: expressed in transfected cells; host or cells: Fischer rat thyroid (FRT) cells
measurement_conditions: FRT cells ΔF508 CFTR/YFP, 24 hours at 27° C., compound with forskolin 30 min
pEC50: −log10 of the molar value.

# count of solved cases: 2
- compound: "CN1CC[C@@H](n2nc(-c3ccc(Cl)cc3)c3c(N)ncnc32)C1 [Compound No. 356]"
  pEC50: "< 4.82"
- compound: "CC(C)(C)n1nc(-c2ccc(Cl)cc2)c2c(NS(C)(=O)=O)ncnc21 [Compound No. 274]"
  pEC50: "< 4.82"

# ---- query compound ----
Asked: For O=[N+]([O-])c1ccc(Nc2ncnc3[nH]nc(-c4ccc(Cl)cc4)c23)nc1 [compound 293] , what is its reported pEC50?
Given back: < 4.82

* * *

assayed_system: ΔF508 CFTR (Homo sapiens, UniProt P13569, DEL508-508)
test_description: Corrector activity, YFP halide (iodide) quenching assay in FRT cells expressing ΔF508 CFTR
Format: cell-based
Design: expressed in transfected cells; host or cells: Fischer rat thyroid (FRT) cells
measurement_conditions: FRT cells ΔF508 CFTR/YFP, 24 hours with compound at 37° C., forskolin and genistein; read-out: Corrector EC50
Quick reference for EC50 among some molecules

- molecule: "CCn1nc([S+]([O-])c2cccc3ccccc23)c2c(N)ncnc21 (stereo not shown) [compound 241]"
  reported: "> 15 µM"
- molecule: "CC(C)(C)n1nc(Sc2ccccn2)c2c(N)ncnc21 [compound 245]"
  reported: "> 15 µM"
- molecule: "CC(C)(C)n1nc(-c2ccc3c(c2)OCO3)c2c(N)ncnc21 [compound 131]"
  reported: "> 15 µM"

Asked: For CCn1nc([S+]([O-])c2cccc(O)c2)c2c(N)ncnc21 (stereo not shown) [compound 285] , what is its reported EC50?
Given back: > 15 µM

Asked: # iterate: CCn1cc(-c2ccc(Cl)cc2)c2c(N(C(C)=O)C(C)=O)ncnc21 [compound 211]
Given back: 2 to 5 µM

Asked: # iterate: CCn1nc(Nc2cccc(Cl)c2)c2c(N)ncnc21 [compound 286]
Given back: > 15 µM

Asked: # iterate: CCn1nc(Sc2cccc3ccccc23)c2c(N)ncnc21 [compound 207]
Given back: > 15 µM

Asked: # iterate: CCn1cc(-c2ccc(Cl)cc2)c2c(NC(=O)c3ccc(C)cc3)ncnc21 [compound 298]
Given back: < 2 µM
